- assayComment: folding enthalpy; higher = less favourable; fluorescence melt of hairpins on a sequencing array, two-state fit
- conditionContext: sodium 0.088 M
# Lookup of reported folding enthalpy keyed by entry
Report as a plain number; the unit kcal/mol is understood.

{"columns": ["recordSequence", "valueType", "reported"],
 "data": [
  ["GATCGGCGCCCCGATC ((((((....))))))", "folding enthalpy", -39.7],
  ["GGCTAGTCGAAAGACGCC (((..(((....))))))", "folding enthalpy", -19.9],
  ["GTGAGCGAAAGCTCTCAC ((((((....)))..)))", "folding enthalpy", -10],
  ["GTAGAGGGAAACTTCTAC (((((.(....).)))))", "folding enthalpy", -21.5],
  ["GCAGCCGAAAGGCGTGC ((((((....))).)))", "folding enthalpy", -16.5],
  ["GACATCCGAAAGGAAGTC (((.(((....))).)))", "folding enthalpy", -36.6],
  ["GGTTTTGGAAACAGAACC ((((.((....)).))))", "folding enthalpy", -36.7],
  ["GCCAGCGAAAGCTTGGGC ((((((....)))..)))", "folding enthalpy", -26.7],
  ["GTGCCTCGAAAGAGTCAC (((.(((....))).)))", "folding enthalpy", -29.5],
  ["GACGCAGGAAACTGTGTC (((.(((....))).)))", "folding enthalpy", -39.8]
]}

Task item: Quick one: folding enthalpy for GATCCCCTGTGGGATC ((((((....)))))) ?
Reply: -33.3

Task item: Look at this sequence and give its reported folding enthalpy. GCCGATGGAAACATTGGC (((.(((....))).)))
Reply: -55.2

Task item: What folding enthalpy value was documented for this sequence, GATCGTCTTCACGATC ((((((....)))))) ?
Reply: -45.7

Task item: Request the reported folding enthalpy associated with GATCGGAAAACCGATC ((((((....))))))
Reply: -35.5

Task item: I am curious: what folding enthalpy value has been reported for GTATCCGAAAGGAGATAC ((((((....)))..))) ?
Reply: -15.2
